assayed-target: Aβ1-42 fibers (Homo sapiens, UniProt P05067)
experiment-notes: In vitro direct determination of Kd and Bmax by fluorescence, Aβ1-42 fibers
Type: binding
reported-conditions: density of binding sites; direct fluorescence, Scatchard analysis
Each item that follows carries a reported Aβ Bmax1.

molecule	assayed-target	Aβ Bmax1
CN(C)c1ccc(C#Cc2cc3ccc(-c4ccsc4)nc3[nH]2)cc1 [Compound 25b]	Aβ1-42 fibers (Homo sapiens, UniProt P05067)	11.0 ± 1 nmol/μmol prot
CN(C)c1ccc(C#Cc2cc3ccc(F)nc3[nH]2)cc1 [Compound 22f]	Aβ1-42 fibers (Homo sapiens, UniProt P05067)	21.6 ± 3 nmol/μmol prot
CN(C)c1ccc(C#Cc2cc3cccnc3[nH]2)cc1 [Compound 22a]	Aβ1-42 fibers (Homo sapiens, UniProt P05067)	3.04 ± 0.6 nmol/μmol prot
CN(C)c1ccc(C#Cc2cc3ccc(-c4ccc(F)nc4)nc3[nH]2)cc1 [Compound 25c]	Aβ1-42 fibers (Homo sapiens, UniProt P05067)	11.0 ± 2 nmol/μmol prot
CN(C)c1ccc(C#Cc2cc3cnccc3[nH]2)cc1 [Compound 22d]	Aβ1-42 fibers (Homo sapiens, UniProt P05067)	2.4 ± 0.8 nmol/μmol prot
CN(C)c1ccc(C#Cc2cc3ccc(-c4cccs4)nc3[nH]2)cc1 [Compound 25a]	Aβ1-42 fibers (Homo sapiens, UniProt P05067)	5.8 ± 0.32 nmol/μmol prot
CC(=C(C#N)C#N)c1ccc2cc(N(C)CCF)ccc2c1 [FDDNP, reference compound]	Aβ1-42 fibers (Homo sapiens, UniProt P05067)	10.2 ± 1 nmol/μmol prot
CN(C)c1ccc(C#Cc2cc3ncccc3[nH]2)cc1 [Compound 22c]	Aβ1-42 fibers (Homo sapiens, UniProt P05067)	1.44 ± 0.6 nmol/μmol prot
CNc1ccc(/C=C/c2ccc(OCCOCCOCCF)nc2)cc1 [AV45, reference compound]	Aβ1-42 fibers (Homo sapiens, UniProt P05067)	3.33 ± 0.2 nmol/μmol prot
CN(CCF)c1ccc(C#Cc2cc3cccnc3[nH]2)cc1	Aβ1-42 fibers (Homo sapiens, UniProt P05067)	1.8 ± 0.6 nmol/μmol prot
CN(C)c1ccc(C#Cc2cc3ccncc3[nH]2)cc1 [Compound 22b]	Aβ1-42 fibers (Homo sapiens, UniProt P05067)	2.3 ± 0.8 nmol/μmol prot

====

assayed-target: α-syn fibres (Homo sapiens (Human))
Lab note - cut at 30 nM for Ki: Condition met if strictly below, Condition not met if not.

compound	class-label
CN(C)c1ccc(C#Cc2cc3ccc(Cl)nc3[nH]2)cc1 [Compound 22e]	Condition not met
CN(C)c1ccc(C#Cc2cc3cccnc3[nH]2)cc1 [Compound 22a]	Condition met
CNc1ccc(/C=C/c2ccc(OCCOCCOCCF)nc2)cc1 [AV45, reference compound]	Condition not met
CN(C)c1ccc(C#Cc2cc3ccncc3[nH]2)cc1 [Compound 22b]	Condition met
CN(C)c1ccc(C#Cc2cc3ncccc3[nH]2)cc1 [Compound 22c]	Condition met
CC(=C(C#N)C#N)c1ccc2cc(N(C)CCF)ccc2c1 [FDDNP, reference compound]	Condition met

====

assayed-target: Aβ1-42 fibres (Homo sapiens)
Sequence (P05067 672-713 limits assumed): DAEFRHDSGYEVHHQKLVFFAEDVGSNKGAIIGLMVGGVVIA
experiment-notes: In vitro inhibition of ThT binding and determination of Ki (fluorescence), Aβ1-42 fibres
reported-conditions: vs Thioflavin T 500 nM; Aβ1-42 fibres 500 nM; PBS pH7.4, 1 h RT; read-out: Ki Aβ
Label yes (1) when Ki < 90 nM; otherwise no (0).

molecule	class-label
CN(C)c1ccc(C#Cc2cc3ncccc3[nH]2)cc1 [Compound 22c]	yes (1)
CN(C)c1ccc(C#Cc2cc3ccc(Cl)nc3[nH]2)cc1 [Compound 22e]	no (0)
CNc1ccc(/C=C/c2ccc(OCCOCCOCCF)nc2)cc1 [AV45, reference compound]	yes (1)
CN(C)c1ccc(C#Cc2cc3cc(F)cnc3[nH]2)cc1 [Compound 22g]	no (0)
CN(C)c1ccc(C#Cc2cc3ccc(F)nc3[nH]2)cc1 [Compound 22f]	no (0)
CN(C)c1ccc(C#Cc2cc3cccnc3[nH]2)cc1 [Compound 22a]	yes (1)
CC(=C(C#N)C#N)c1ccc2cc(N(C)CCF)ccc2c1 [FDDNP, reference compound]	yes (1)
CN(C)c1ccc(C#Cc2cc3c(F)ccnc3[nH]2)cc1 [Compound 22h]	no (0)
